# protocol text: recombinant barcode read abundance after kanamycin selection (control-corrected) (log10(CPM+1)); higher = more efficient recombination; sequences stand for … in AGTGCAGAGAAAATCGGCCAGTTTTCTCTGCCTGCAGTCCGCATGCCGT…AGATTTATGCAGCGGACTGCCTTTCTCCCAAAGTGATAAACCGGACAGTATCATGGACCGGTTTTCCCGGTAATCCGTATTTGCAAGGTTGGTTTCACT; site = the 11-nt target
Lab note: compare recombinant barcode read abundance (log10) against 0.9. Equal or greater, write Condition met. Smaller, write Condition not met.

Is reported recombinant barcode read abundance (log10) greater than or equal to 0.9 here: GCGTGCCCTTGGGTTCTAACCTGTTGCTA (site GCGTCCACTTA)
Condition not met

Test whether the sequence AAGATAGCTTGGGTTCTAACCTGTTGCCT (site AAGACAGCTAG) records recombinant barcode read abundance (log10) of 0.9 or higher.
Condition not met

Is recombinant barcode read abundance (log10) at least 0.9? Consider AGACGGACTTGGGTTCTAACCTGTTGCCA (site AGACGGACTTG)
Condition met

Check the entry TACGGGGCTTGGGTTCTAACCTGTTGCCT (site TACGAGGCTAG) : does recombinant barcode read abundance (log10) equal or exceed 0.9?
Condition not met

Has GTGAGGCCTTGGGTTCTAACCTGTTGCCT (site GTGAGGCCTAG) a recorded recombinant barcode read abundance (log10) greater than or equal to 0.9?
Condition not met

* * *

# reported recombinant UMI read abundance (log10); entries follow
# protocol text: recombinant UMI read abundance after kanamycin selection (control-corrected) (log10(CPM+1)); higher = more efficient recombination; extreme values may be limits of the assay; sequences stand for … in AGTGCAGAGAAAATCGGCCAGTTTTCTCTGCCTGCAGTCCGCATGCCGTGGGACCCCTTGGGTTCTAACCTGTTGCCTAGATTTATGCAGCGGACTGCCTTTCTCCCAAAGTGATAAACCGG…AGGTTGGTTTCACT; site = the 11-nt donor
Could you keep your reply to the number by itself?

Below: 5 sequences and their reported recombinant UMI read abundance (log10).
{"seq": "TAGGACTCATGGACCGGTTTTCCCGGTAATCCGTATTTGCG (site TAGGAATCTCG)", "observed result": 1.98}
{"seq": "TGTAAACCATGGACCGGTTTTCCCGGTAATCCGTATTTGAC (site TGTACACCTGT)", "observed result": 0}
{"seq": "ATACAAGCATGGACCGGTTTTCCCGGTAATCCGTATTTGAG (site ATCCAAGCTCT)", "observed result": 0.803}
{"seq": "TCATGAGCATGGACCGGTTTTCCCGGTAATCCGTATTTGGG (site TTATGAGCTCC)", "observed result": 0.00944}
{"seq": "TAGTGTACATGGACCGGTTTTCCCGGTAATCCGTATTTGAT (site TAGTGTACTAT)", "observed result": 0.856}

What recombinant UMI read abundance (log10) value was documented for this sequence, CGTACTCCATGGACCGGTTTTCCCGGTAATCCGTATTTGCA (site CGTACTCCTTG) ?
0.892

Report recombinant UMI read abundance (log10) for CTCATATCATGGACCGGTTTTCCCGGTAATCCGTATTTGTC (site CTCATATCTGA) please.
1.5

Entry GAGCTTACATGGACCGGTTTTCCCGGTAATCCGTATTTGAT (site GAGCTCACTAT) has what recombinant UMI read abundance (log10)?
0.0125

What measured recombinant UMI read abundance (log10) goes with TACTGCCCATGGACCGGTTTTCCCGGTAATCCGTATTTGGA (site TACTGCCCTTC) ?
0.00999

Please look up its recombinant UMI read abundance (log10): AGGAAAACATGGACCGGTTTTCCCGGTAATCCGTATTTGTA (site AGGAAAACTTA)
1.92

What recombinant UMI read abundance (log10) value was documented for this sequence, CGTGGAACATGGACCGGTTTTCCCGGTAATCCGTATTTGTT (site CGCGGAACTAA) ?
0.501

* * *

# protocol text: recombinant UMI read abundance after kanamycin selection (control-corrected) (log10(CPM+1)); higher = more efficient recombination; extreme values may be limits of the assay; sequences stand for … in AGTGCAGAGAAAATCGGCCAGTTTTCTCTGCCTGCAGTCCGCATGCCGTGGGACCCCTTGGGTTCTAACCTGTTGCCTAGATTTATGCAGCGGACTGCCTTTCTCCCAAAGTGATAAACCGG…AGGTTGGTTTCACT; site = the 11-nt donor
Entries and their measured recombinant UMI read abundance (log10) follow.
// print number alone

Below, 3 sequences whose answers are already recorded.
{"seq": "TAAGCACCATGGACCGGTTTTCCCGGTAATCCGTATTTGAA (site TAAGCACCTTT)", "observed result": 0.0176}
{"seq": "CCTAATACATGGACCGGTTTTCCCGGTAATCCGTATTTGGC (site CGTAATACTGC)", "observed result": 0}
{"seq": "AATTAAGCATGGACCGGTTTTCCCGGTAATCCGTATTTGGA (site AATTAAGCTTC)", "observed result": 0.894}

Please examine the following record next.
What value of recombinant UMI read abundance (log10) has been reported for the following sequence? CGAAGTGCATGGACCGGTTTTCCCGGTAATCCGTATTTGTT (site CGAAGTGCTAA)
2.57

* * *

# protocol text: recombinant barcode read abundance after kanamycin selection (control-corrected) (log10(CPM+1)); higher = more efficient recombination; sequences stand for … in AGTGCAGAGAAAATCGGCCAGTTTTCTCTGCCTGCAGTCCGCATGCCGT…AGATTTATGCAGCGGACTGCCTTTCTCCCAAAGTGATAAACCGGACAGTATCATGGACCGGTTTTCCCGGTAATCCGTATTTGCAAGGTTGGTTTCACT; site = the 11-nt target
I would appreciate it if you labelled entries True when recombinant barcode read abundance (log10) is 0.2 or higher, otherwise False.

Look over these answered cases.
{"seq": "CCACTGCCTTGGGTTCTAACCTGTTGCCT (site CCACTACCTAG)", "label value": "True"}
{"seq": "CACCTGTCTTGGGTTCTAACCTGTTGCGG (site CACCTGTCTCC)", "label value": "True"}

I'd appreciate it if you could say whether CGTATATCTTGGGTTCTAACCTGTTGCCT (site CGTGTAACTAG) has recombinant barcode read abundance (log10) at least equal to 0.2.
False

Does the reported recombinant barcode read abundance (log10) for TAATCGGCTTGGGTTCTAACCTGTTGCCT (site TAATCGACTAG) fall at or above the 0.2 mark?
False

Is the recorded value of recombinant barcode read abundance (log10) equal to or greater than 0.2 for this sequence? TCCAGTCCTTGGGTTCTAACCTGTTGCTA (site TCCATCCCTTA)
False

* * *

Entries and their recombinant barcode read abundance (log10)
# protocol text: recombinant barcode read abundance after kanamycin selection (control-corrected) (log10(CPM+1)); higher = more efficient recombination; sequences stand for … in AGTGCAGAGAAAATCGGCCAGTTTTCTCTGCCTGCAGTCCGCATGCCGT…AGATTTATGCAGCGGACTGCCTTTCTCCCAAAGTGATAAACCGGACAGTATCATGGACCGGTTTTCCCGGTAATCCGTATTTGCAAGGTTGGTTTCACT; site = the 11-nt target

Some solved cases for reference:
{"seq": "TCCGGTACTTGGGTTCTAACCTGTTGCAT (site TCCGGTACTAT)", "observed result": 0.849}
{"seq": "CATCCTACTTGGGTTCTAACCTGTTGCCT (site CATCCTACTAG)", "observed result": 0.259}
{"seq": "GACCTATCTTGGGTTCTAACCTGTTGCCT (site GACCTATCTAG)", "observed result": 1.39}
{"seq": "GGGATGTCTTGGGTTCTAACCTGTTGCCT (site GGGATGTCTAG)", "observed result": 2.04}
{"seq": "CTAAGCGCTTGGGTTCTAACCTGTTGCCA (site CTAAGCGCTTG)", "observed result": 0.647}
{"seq": "TGCCCGCCTTGGGTTCTAACCTGTTGCCT (site TGCCCGCCTAG)", "observed result": 0.292}
{"seq": "GGGTCCTCTTGGGTTCTAACCTGTTGCCA (site GGGTCCTCTGG)", "observed result": 0.0677}
{"seq": "TACCGGCCTTGGGTTCTAACCTGTTGCTT (site TACCGGCCTAA)", "observed result": 0.444}

Report recombinant barcode read abundance (log10) for GACGTAACTTGGGTTCTAACCTGTTGCAG (site GACGTAACTCT) please.
1.15

Query (sequence): GTCCGTCCTTGGGTTCTAACCTGTTGCAT (site GTCCGTCCTAA) ; field requested: recombinant barcode read abundance (log10)
0.178

Tell me the measured recombinant barcode read abundance (log10) of CGGAGCTCTTGGGTTCTAACCTGTTGCCT (site CGTAGCTCTAG) , please.
0.0387

Reference for the values: the supplement of paper PMC11208160
